- Test system: Staphylococcus epidermidis
- assay-summary: Antibacterial activity against methicillin-sensitive Staphylococcus epidermidis 01-1004 by broth microdilution method
- Format: functional
Please respond with reported MIC for every item in the list.
Response body: numeric value in µg/mL, unit text excluded.

[Q] Retrieve MIC measured for C=CCO[C@@H]1C[C@@H](C)C(=O)[C@H](C)[C@H]2OC(=O)O[C@]2(C)[C@@H](CC)OC(=O)[C@H](C)[C@@H](OC(=O)COc2ccccc2)[C@H](C)[C@H]1OC1O[C@H](C)C[C@H](N(C)C)[C@H]1O (some centres not stated) and print it.
[A] 8

[Q] Determine its reported MIC: C=CCO[C@@H]1C[C@@H](C)C(=O)[C@H](C)[C@H]2OC(=O)O[C@]2(C)[C@@H](CC)OC(=O)[C@H](C)[C@@H](OC(=O)Cc2ccc(Cl)cc2)[C@H](C)[C@H]1OC1O[C@H](C)C[C@H](N(C)C)[C@H]1O (some centres not stated)
[A] 2
